The measured values listed here are drawn from paper PMC8826350.

Biological target: ABCB1 (Homo sapiens, UniProt P08183)
Sequence (P08183 whole entry): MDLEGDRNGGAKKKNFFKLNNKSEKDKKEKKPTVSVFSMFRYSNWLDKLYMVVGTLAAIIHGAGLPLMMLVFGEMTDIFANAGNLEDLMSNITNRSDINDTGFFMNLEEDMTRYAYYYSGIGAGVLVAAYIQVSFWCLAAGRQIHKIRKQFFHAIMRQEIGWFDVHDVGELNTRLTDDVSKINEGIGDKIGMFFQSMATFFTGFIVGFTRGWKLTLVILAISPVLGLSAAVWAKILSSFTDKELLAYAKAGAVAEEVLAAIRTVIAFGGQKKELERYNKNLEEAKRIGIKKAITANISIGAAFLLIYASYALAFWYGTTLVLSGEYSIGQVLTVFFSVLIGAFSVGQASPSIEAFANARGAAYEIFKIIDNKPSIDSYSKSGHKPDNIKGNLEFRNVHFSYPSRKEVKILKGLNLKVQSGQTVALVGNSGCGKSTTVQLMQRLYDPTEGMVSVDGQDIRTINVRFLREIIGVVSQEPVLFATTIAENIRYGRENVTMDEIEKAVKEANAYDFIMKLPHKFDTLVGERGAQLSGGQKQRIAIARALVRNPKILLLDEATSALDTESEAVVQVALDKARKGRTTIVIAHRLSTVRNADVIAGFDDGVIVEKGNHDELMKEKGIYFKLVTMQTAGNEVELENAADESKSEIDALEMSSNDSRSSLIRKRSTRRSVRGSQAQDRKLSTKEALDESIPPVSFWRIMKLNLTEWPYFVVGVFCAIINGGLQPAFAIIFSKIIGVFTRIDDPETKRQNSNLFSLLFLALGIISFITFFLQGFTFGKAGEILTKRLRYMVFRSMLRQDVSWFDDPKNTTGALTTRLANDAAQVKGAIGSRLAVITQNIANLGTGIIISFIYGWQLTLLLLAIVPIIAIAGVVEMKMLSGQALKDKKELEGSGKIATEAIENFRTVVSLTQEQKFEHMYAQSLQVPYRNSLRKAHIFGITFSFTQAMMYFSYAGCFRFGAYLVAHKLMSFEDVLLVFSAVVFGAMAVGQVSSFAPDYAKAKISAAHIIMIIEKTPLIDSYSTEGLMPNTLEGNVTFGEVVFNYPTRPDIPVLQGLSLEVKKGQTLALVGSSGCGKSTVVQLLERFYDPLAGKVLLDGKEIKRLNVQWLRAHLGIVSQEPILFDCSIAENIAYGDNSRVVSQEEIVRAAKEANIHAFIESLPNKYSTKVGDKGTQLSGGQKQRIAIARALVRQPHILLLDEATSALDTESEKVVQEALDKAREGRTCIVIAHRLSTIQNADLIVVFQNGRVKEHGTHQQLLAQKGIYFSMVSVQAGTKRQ
Experiment: Daunorubicin accumulation assay (flow cytometry), A2780/ADR cells
REPORTED PROPERTY: IC50

- STRUCTURE SMILES: "COc1ccc(OCc2noc(CN3CCN(C(=O)C45CC6CC(CC(C6)C4)C5)CC3)n2)cc1"
  VAL: "80.2 µM"

---

Molecular target: ABCC1 (Homo sapiens, UniProt P33527)
Sequence (P33527 whole entry): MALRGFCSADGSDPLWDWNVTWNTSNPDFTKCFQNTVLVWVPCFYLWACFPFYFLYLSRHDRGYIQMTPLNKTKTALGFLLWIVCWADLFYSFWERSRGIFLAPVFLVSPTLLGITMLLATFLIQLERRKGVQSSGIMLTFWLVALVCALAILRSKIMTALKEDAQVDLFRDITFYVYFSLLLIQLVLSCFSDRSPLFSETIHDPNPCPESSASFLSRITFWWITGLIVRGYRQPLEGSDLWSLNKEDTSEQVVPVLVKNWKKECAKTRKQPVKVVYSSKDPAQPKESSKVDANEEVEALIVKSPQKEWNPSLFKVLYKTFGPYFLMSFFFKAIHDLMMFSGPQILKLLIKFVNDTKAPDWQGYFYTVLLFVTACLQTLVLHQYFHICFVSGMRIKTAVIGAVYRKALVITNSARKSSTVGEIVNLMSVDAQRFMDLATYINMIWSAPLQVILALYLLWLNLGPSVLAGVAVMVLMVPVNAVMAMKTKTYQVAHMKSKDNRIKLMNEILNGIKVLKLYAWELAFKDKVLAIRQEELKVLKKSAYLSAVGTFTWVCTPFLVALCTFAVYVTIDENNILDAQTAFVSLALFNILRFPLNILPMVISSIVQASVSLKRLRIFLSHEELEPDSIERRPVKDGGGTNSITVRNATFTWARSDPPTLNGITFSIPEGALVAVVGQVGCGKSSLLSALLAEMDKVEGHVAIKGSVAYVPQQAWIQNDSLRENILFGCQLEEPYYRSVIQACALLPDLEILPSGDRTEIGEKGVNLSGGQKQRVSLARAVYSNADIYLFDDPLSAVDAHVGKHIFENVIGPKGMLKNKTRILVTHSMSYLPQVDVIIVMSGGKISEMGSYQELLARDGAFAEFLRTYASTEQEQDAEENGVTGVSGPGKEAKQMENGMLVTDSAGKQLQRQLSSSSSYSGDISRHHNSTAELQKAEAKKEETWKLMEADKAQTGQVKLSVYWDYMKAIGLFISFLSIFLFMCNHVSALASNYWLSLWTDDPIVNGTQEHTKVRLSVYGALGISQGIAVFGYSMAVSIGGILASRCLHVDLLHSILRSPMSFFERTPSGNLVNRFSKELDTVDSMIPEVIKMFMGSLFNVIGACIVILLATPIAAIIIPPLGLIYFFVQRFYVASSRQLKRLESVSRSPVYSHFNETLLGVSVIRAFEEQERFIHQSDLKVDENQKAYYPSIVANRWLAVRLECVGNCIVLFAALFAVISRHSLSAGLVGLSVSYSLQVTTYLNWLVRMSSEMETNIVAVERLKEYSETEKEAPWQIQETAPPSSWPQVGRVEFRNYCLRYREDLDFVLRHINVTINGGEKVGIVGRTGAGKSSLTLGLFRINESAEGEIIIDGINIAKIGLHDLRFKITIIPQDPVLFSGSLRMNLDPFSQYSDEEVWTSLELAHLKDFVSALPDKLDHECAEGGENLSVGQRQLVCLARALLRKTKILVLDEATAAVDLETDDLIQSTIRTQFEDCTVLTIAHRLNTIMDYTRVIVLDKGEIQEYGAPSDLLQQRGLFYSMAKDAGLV
Test: Daunorubicin accumulation assay (flow cytometry), H69AR cells
pIC50: −log10 of the molar value.
Form field: pIC50 (one value per entry).

- COMPOUND: "COc1ccc(OCc2noc(CN3CCN(C(=O)C45CC6CC(CC(C6)C4)C5)CC3)n2)cc1 [Compound 5]"
  pIC50: 4.24
- COMPOUND: "Cc1onc(-c2ccccc2Cl)c1C(=O)N1CCN(Cc2nnnn2-c2ccc(F)cc2)CC1 [Compound 3]"
  pIC50: 4.41

---

Target: ABCB1 (Homo sapiens, UniProt P08183)
Test: Calcein AM assay (plate reader), ABCB1-overexpressing A2780/ADR cells

- COMPOUND: "Cc1ccccc1Cn1c(N2CCN(CCc3ccccc3)CC2)nc2c1c(=O)[nH]c(=O)n2C [Compound 1]"
  IC50 / µM: 22.7
- COMPOUND: "O=C(C1c2ccccc2Oc2ccccc21)N1CCN(Cc2nnnn2-c2ccc(F)cc2)CC1 [Compound 4]"
  IC50 / µM: 15.5
- COMPOUND: "COc1ccc(OCc2noc(CN3CCN(C(=O)C45CC6CC(CC(C6)C4)C5)CC3)n2)cc1 [Compound 5]"
  IC50 / µM: 25.6
- COMPOUND: "Cn1c(=O)n(C)c2cc(S(=O)(=O)N3CCN(C(c4ccccc4)c4ccccc4)CC3)ccc21 [Compound 2]"
  IC50 / µM: 8.26

---

Target: ABCG2 (Homo sapiens, UniProt Q9UNQ0)
Sequence (Q9UNQ0 whole entry): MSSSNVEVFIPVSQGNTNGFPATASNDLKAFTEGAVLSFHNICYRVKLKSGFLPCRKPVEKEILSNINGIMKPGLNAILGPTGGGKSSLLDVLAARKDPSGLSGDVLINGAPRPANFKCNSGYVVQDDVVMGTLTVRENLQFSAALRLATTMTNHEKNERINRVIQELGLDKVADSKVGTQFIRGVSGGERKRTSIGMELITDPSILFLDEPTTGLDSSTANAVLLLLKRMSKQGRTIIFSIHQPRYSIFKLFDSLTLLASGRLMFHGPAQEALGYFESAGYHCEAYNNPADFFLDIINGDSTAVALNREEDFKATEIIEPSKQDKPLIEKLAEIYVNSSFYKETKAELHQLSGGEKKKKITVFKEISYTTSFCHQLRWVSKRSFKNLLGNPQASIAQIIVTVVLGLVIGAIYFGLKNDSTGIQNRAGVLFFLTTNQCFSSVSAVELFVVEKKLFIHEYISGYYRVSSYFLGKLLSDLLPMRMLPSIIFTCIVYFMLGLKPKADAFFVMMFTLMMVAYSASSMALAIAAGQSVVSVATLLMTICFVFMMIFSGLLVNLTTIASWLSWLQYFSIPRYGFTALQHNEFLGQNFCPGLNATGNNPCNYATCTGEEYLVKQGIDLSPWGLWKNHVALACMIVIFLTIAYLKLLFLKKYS
Experiment: Pheophorbide A assay (flow cytometry), ABCG2-overexpressing MDCK II BCRP cells
Type: cell-based
Parameters: host or cells: MDCK II
Details: curve top constrained to reference 8, read-out: IC50±SEM ABCG2 Pheophorbide A
pIC50: −log10 of the molar value.
List of pIC50 values.
REPORTED PROPERTY: pIC50

- MOLECULE: "COc1ccc(OCc2noc(CN3CCN(C(=O)C45CC6CC(CC(C6)C4)C5)CC3)n2)cc1 [Compound 5]"
  VAL: 4.91
- MOLECULE: "Cn1c(=O)n(C)c2cc(S(=O)(=O)N3CCN(C(c4ccccc4)c4ccccc4)CC3)ccc21 [Compound 2]"
  VAL: 4.59
- MOLECULE: "O=C(C1c2ccccc2Oc2ccccc21)N1CCN(Cc2nnnn2-c2ccc(F)cc2)CC1 [Compound 4]"
  VAL: 4.82
- MOLECULE: "Cc1onc(-c2ccccc2Cl)c1C(=O)N1CCN(Cc2nnnn2-c2ccc(F)cc2)CC1 [Compound 3]"
  VAL: 4.80
- MOLECULE: "Cc1ccccc1Cn1c(N2CCN(CCc3ccccc3)CC2)nc2c1c(=O)[nH]c(=O)n2C [Compound 1]"
  VAL: 5.10

---

Biological target: ABCC1 (Homo sapiens, UniProt P33527)
Assay: Calcein AM assay (plate reader), ABCC1-overexpressing H69AR cells
pIC50: −log10 of the molar value.

- MOLECULE: "Cc1onc(-c2ccccc2Cl)c1C(=O)N1CCN(Cc2nnnn2-c2ccc(F)cc2)CC1 [Compound 3]"
  pIC50: 4.41
- MOLECULE: "COc1ccc(OCc2noc(CN3CCN(C(=O)C45CC6CC(CC(C6)C4)C5)CC3)n2)cc1 [Compound 5]"
  pIC50: 4.22
